method.notes: Plasma and tissue distribution in SD rats
Type: in vivo
conditions.used: male, SD, rat, large intestine / plasma, po, 10 mg/kg, male SD rat, PO 10 mg/kg, Large intestine; Tissue AUC0-last/Plasma AUC0-last; read-out: AUC Ratio

| line.notation | Kp |
| --- | --- |
| C[C@@H](c1ccc(Nc2cc(Nc3ncccc3S(C)(=O)=O)ncn2)nc1)N1CC2(COC2)C1 | 16.7 |

----------
method.notes: Plasma and tissue distribution in SD rats
Assay type: in vivo
conditions.used: female SD rat, PO 10 mg/kg, Large intestine

| line.notation | units.of.measure | Cmax |
| --- | --- | --- |
| C[C@@H](c1ccc(Nc2cc(Nc3ncccc3S(C)(=O)=O)ncn2)nc1)N1CC2(COC2)C1 | ng/g | 4670 |

----------
// reported Papp A→B at 2 h per item
method.notes: Caco-2 permeability
Assay type: in vitro ADME
conditions.used: human, Caco-2

| line.notation | Papp A→B at 2 h |
| --- | --- |
| C[C@@H](c1ccc(Nc2cc(Nc3ncccc3S(C)(=O)=O)ncn2)nc1)N1CC2(COC2)C1 | ~6.02 ×10⁻⁶ cm/s |
| C[C@@H](c1ccc(Nc2cc(Nc3ncc(F)cc3S(C)(=O)=O)ncn2)nc1)N1CC2(COC2)C1 | ~7.2 ×10⁻⁶ cm/s |

----------
method.notes: Plasma and tissue distribution in SD rats
Assay type: in vivo
conditions.used: female, SD, rat, small intestine, po, 10 mg/kg, female SD rat, PO 10 mg/kg, Small intestine; Tissue AUC0-last/Plasma AUC0-last; read-out: AUC Ratio
Experimental: The following Example describes the methods and data used to evaluate the tissue distribution of TYK2 inhibitors following the administration of either compound 1 or compound 2. Thirty (30, 15/sex) SD rats supplied by Beijing Vital River Laboratory Animal Technology Co., Ltd. were used in this study. […] The room (s) was controlled and monitored for relative humidity (targeted mean range 40% to 70%) and temperature (targeted mean range 20° C. to 26° C.) with 15 or above air changes/hour. […]
property: Kp

| line.notation | result.number |
| --- | --- |
| C[C@@H](c1ccc(Nc2cc(Nc3ncccc3S(C)(=O)=O)ncn2)nc1)N1CC2(COC2)C1 | 17.5 |

----------
method.notes: Plasma and tissue distribution in SD rats
Assay type: in vivo
conditions.used: Sprague-Dawley; male SD rat, PO 10 mg/kg, Eyeball (left and right)

| compound | half-life / h |
| --- | --- |
| C[C@@H](c1ccc(Nc2cc(Nc3ncccc3S(C)(=O)=O)ncn2)nc1)N1CC2(COC2)C1 [Compound 1] | 4.03 |

----------
method.notes: Plasma and tissue distribution in SD rats
Format: in vivo
conditions.used: male, Sprague-Dawley, rat, testis, oral, 10 mg/kg, SD rat, Testis; read-out: Tissue/Plasma Ratio (AUCinf)

| compound | Kp |
| --- | --- |
| C[C@@H](c1ccc(Nc2cc(Nc3ncccc3S(C)(=O)=O)ncn2)nc1)N1CC2(COC2)C1 [Compound 1] | 1.6 |

----------
method.notes: Plasma and tissue distribution in SD rats
Format: in vivo
conditions.used: female, Sprague-Dawley; F SD rat, Adipose

| line.notation | Cmax |
| --- | --- |
| C[C@@H](c1ccc(Nc2cc(Nc3ncc(F)cc3S(C)(=O)=O)ncn2)nc1)N1CC2(COC2)C1 | 4310 ng/mL |

These data points were gathered from patent US20260048051A1.
